System: P. falciparum stage V gametocytes
Design: BacTiter-Glo ATP luminescence viability of purified stage V gametocytes in 384-well plates, per cent inhibition versus DMSO
Condition Summary: 48 h, 5 µM; inhibitor
Screen size: about 13,000 compounds; about 3,200 (25%) showed an effect of 50% or more. The list shows a part of the results.
Quantity Measured: % Inhibition (%)

[
  {
    "Compound": "CC(C)CNCc1cccc(-c2ccc(CN(CCCN3CCN(C)CC3)C(=O)CCC3CCCC3)cc2)c1",
    "Unit Symbol": "%",
    "Reported": 107.6
  },
  {
    "Compound": "COc1ccc2nccc([C@@H](O)CN3CCC(NC(=O)c4ccc(-c5ccc(C#N)cc5)cc4)CC3)c2c1",
    "Unit Symbol": "%",
    "Reported": 7.804
  },
  {
    "Compound": "CC[C@H](C)CNC(=O)c1cncc(-c2cccc(CN(C)C3CCN(C)CC3)c2)c1",
    "Unit Symbol": "%",
    "Reported": 17.67
  },
  {
    "Compound": "CCOC(=O)c1[nH]c(-c2ccc(Cl)cc2)nc1NC(=S)NCCCN1CCOCC1",
    "Unit Symbol": "%",
    "Reported": 37.64
  },
  {
    "Compound": "CC(C)CNCc1cccc(-c2cccc(CN(CCCN3CCN(C)CC3)C(=O)CCC3CCCC3)c2)c1",
    "Unit Symbol": "%",
    "Reported": 109.3
  },
  {
    "Compound": "CC[C@H](C)CNC(=O)c1ccnc(-c2cccc(CN(C)C3CCN(C)CC3)c2)c1",
    "Unit Symbol": "%",
    "Reported": -9.422
  },
  {
    "Compound": "CC(CNC(=O)[C@H]1CNCCN1C(=O)CCCc1ccccc1)c1ccccc1 (stereo partly shown)",
    "Unit Symbol": "%",
    "Reported": 55.69
  },
  {
    "Compound": "CC(CN(C)C)C(=O)Nc1cccc(-c2ccc(-c3nc4ccc(C(F)(F)F)cc4[nH]3)cc2)c1 (stereo not shown)",
    "Unit Symbol": "%",
    "Reported": -57.5
  },
  {
    "Compound": "Cc1c(CNCCCNc2cc(=O)c3ccccc3[nH]2)sc(-c2ccco2)c1Br",
    "Unit Symbol": "%",
    "Reported": -27.75
  },
  {
    "Compound": "O=C(O)C[C@H](NC(=O)CCCNC(=O)c1cccc(-c2ccc(Cl)c(Cl)c2)c1)C(=O)O",
    "Unit Symbol": "%",
    "Reported": 11.45
  },
  {
    "Compound": "N#Cc1ccc(-c2ccc(C(=O)Nc3ccc4c(c3)CCN(C3CCC3)CC4)nc2)cn1",
    "Unit Symbol": "%",
    "Reported": 49.39
  },
  {
    "Compound": "COc1ccc2nccc([C@@H](O)CN3CCC(NCc4cc5cccc(OCc6ccccc6)c5[nH]4)CC3)c2c1",
    "Unit Symbol": "%",
    "Reported": 10.73
  },
  {
    "Compound": "Nc1nc(N)c2c(Oc3cccnc3)cccc2n1",
    "Unit Symbol": "%",
    "Reported": -4.996
  },
  {
    "Compound": "COC(=O)c1ccc(CC(C)NCC(O)c2cccc(I)c2)cc1 (stereo not shown)",
    "Unit Symbol": "%",
    "Reported": -10.65
  },
  {
    "Compound": "Cc1noc(C)c1-c1cccc(CNCc2cccc(-c3ccc(-c4nc5cccc(C)c5[nH]4)cc3)c2)c1.O=C(O)C(F)(F)F",
    "Unit Symbol": "%",
    "Reported": -10.48
  },
  {
    "Compound": "CCCC(=O)Nc1ccc(Nc2nc(C)cc(N3CCCC3)n2)cc1",
    "Unit Symbol": "%",
    "Reported": -11.42
  }
]
